Target: recombinant human HDAC6 (Homo sapiens)
Test: Enzymatic screening on recombinant human HDAC6
Assay type: biochemical
Conditions: Table 2; read-out: HDAC6 IC50
Procedure: Enzymatic activity on recombinant human HDAC6 and HDAC3 was evaluated (Table 2) for each synthesized compound. After a period of incubation at 30° C. (incubation times vary for different isoforms and are shown in table 1) 25 μL of solution containing the substrate were added. […]
PROPERTY MEASURED: IC50 (nM)

a: O=C(NO)c1ccc(Cc2nnc(-c3ccc(S(=O)(=O)N4CCCC4)cc3)o2)cc1 [comp. 69]
b: O=C(NO)c1ccc(Cn2nnc(-c3ccccc3F)n2)cc1 [comp. 33]
c: Cn1c(Sc2c(F)cc(C(=O)NO)cc2F)nnc1-c1scc2c1OCCO2 [comp. 118]
d: O=C(NO)c1cc(F)c(Cn2nnnc2-c2cccc(S(F)(F)(F)(F)F)c2)c(F)c1 [comp. 109]
e: O=C(NO)c1ccc(Cn2nnnc2-c2ccc(S(F)(F)(F)(F)F)cc2)cc1 [comp. 111]
With the 5 compounds above, produce a list ordered by ascending IC50. Answer by naming the labels in the order asked.
b, c, a, d, e

====

Biological target: recombinant human HDAC6 (Homo sapiens, UniProt Q9UBN7)
Sequence (Q9UBN7 whole entry): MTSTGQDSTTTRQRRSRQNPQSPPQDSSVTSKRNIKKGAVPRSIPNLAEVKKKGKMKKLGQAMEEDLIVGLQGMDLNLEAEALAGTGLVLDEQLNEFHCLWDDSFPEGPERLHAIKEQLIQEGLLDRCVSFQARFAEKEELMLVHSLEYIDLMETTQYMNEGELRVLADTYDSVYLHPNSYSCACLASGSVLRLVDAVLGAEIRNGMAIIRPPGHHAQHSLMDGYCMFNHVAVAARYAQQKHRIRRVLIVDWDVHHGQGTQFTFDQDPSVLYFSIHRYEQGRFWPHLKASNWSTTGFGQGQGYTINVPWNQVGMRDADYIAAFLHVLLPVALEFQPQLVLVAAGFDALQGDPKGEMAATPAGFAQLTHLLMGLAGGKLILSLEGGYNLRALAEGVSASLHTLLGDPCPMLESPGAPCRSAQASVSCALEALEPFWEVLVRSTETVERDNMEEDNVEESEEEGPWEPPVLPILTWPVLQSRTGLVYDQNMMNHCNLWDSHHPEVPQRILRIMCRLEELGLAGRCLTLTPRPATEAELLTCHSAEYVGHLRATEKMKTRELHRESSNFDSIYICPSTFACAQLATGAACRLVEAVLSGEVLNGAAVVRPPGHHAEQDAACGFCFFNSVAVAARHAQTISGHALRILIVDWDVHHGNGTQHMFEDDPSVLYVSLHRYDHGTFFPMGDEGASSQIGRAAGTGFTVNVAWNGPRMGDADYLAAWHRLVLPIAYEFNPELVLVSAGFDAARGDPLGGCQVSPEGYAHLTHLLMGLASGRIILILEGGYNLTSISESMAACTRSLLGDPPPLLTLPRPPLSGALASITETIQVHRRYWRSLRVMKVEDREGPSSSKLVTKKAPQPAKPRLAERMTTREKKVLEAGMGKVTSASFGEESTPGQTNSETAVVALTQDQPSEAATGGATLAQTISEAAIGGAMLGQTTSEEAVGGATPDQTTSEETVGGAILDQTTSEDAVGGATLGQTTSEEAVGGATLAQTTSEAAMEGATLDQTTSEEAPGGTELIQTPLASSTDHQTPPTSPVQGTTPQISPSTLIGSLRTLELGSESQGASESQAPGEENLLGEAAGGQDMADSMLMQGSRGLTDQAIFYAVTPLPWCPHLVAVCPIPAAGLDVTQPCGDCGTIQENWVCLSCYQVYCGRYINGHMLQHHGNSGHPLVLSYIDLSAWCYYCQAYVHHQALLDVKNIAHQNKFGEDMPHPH
Experiment: Enzymatic screening on recombinant human HDAC6
Assay type: biochemical
Conditions: Table 2; read-out: HDAC6 IC50
pIC50: −log10 of the molar value.
PROPERTY MEASURED: pIC50

I: CN(C)c1cccc(-c2nnc(Sc3ccc(C(=O)NO)cc3)n2C)c1
II: CN(C)S(=O)(=O)c1ccc(F)c(-c2nnc(Sc3ccc(C(=O)NO)cc3)n2C)c1
Would you mind telling me which has the lower recorded pIC50 between I and II ? // output: label of the selected item
II
(II: 7.55, I: 7.77)

A: O=C(O)c1ccc(Cc2nnnn2Cc2c(F)cc(C(=O)NO)cc2F)cc1
B: Cc1nc(N2CCOCC2)sc1-c1nnc(Cc2ccc(C(=O)NO)cc2)o1
Sorting ascending by pIC50, which comes first: A or B ? Reply with the label of the item you choose.
A
(A: 6.49, B: 8.40)

1: O=C(NO)c1ccc(Cn2nnc(-c3cccs3)n2)cc1
2: O=C(NO)c1cc(F)c(Sc2nnc(N3CCCC3)n2Cc2ccco2)c(F)c1
Pick one, 1 or 2 : lowest reported pIC50. Answer = label.
2

a: Cc1nc(Sc2ccc(C(=O)NO)cc2)nn1-c1ccc(Cl)cc1Cl
b: O=C(NO)c1ccc(Cn2nnnc2-c2ccco2)cc1
c: O=C(NO)c1ccc(Sc2nnc(-c3ccccc3)o2)cc1
d: O=C(NO)c1ccc(Cn2c(Cc3c[nH]c4ccccc34)nnc2-c2cccs2)cc1
Which order do these items take when sorted by rising pIC50? List them. Answer by naming the labels in the order asked.
d, a, b, c

I: O=C(NO)c1cc(F)c(Cn2nnnc2-c2ccc3ccccc3n2)c(F)c1
II: COC(=O)c1ccc(Cc2nnnn2Cc2c(F)cc(C(=O)NO)cc2F)cc1
III: O=C(NO)c1ccc(Cn2nnc(Cc3ccccn3)n2)cc1
IV: Cc1nc2ccc(F)cc2cc1-c1nnc(Sc2c(F)cc(C(=O)NO)cc2F)n1C
V: Cc1ccc(-c2cc(-c3nnc(Sc4ccc(C(=O)NO)cc4)n3C)c3ccccc3n2)cc1
List the 5 entries from lowest pIC50 to highest pIC50 value. // rank by listing labels in the order requested
II, V, III, IV, I
(II: 6.76, V: 7.15, III: 7.60, IV: 7.85, I: 8.15)

1: O=C(O)c1ccc(-c2nnn(Cc3ccc(C(=O)NO)cc3)n2)nc1
2: Cn1c(Sc2c(F)cc(C(=O)NO)cc2F)nnc1C1(c2cccc(F)c2)CCCC1
Consider 1 and 2 . Which of these has its pIC50 at a higher number? Refer to your chosen item by its label in the answer.
2
(2: 7.48, 1: 6.86)

A: NCc1ccc(-c2nnn(Cc3c(F)cc(C(=O)NO)cc3F)n2)cc1
B: O=C(NO)c1ccc(Cn2nnnc2-c2ccc(C(F)(F)F)cn2)cc1
C: O=C(NO)c1cc(F)c(Cn2nnnc2-c2scc3c2OCCO3)c(F)c1
D: COC(=O)c1ccc(-c2nnn(Cc3ccc(C(=O)NO)cc3)n2)nc1
Given 4 compounds, produce a descending ranking by pIC50. Your reply should list the labels following the order given in the request.
A, B, C, D

A: CN1CCN(Cc2ccc(-c3nnc(Sc4c(F)cc(C(=O)NO)cc4F)n3C)o2)CC1
B: Cn1c(Sc2c(F)cc(C(=O)NO)cc2F)nnc1-c1cccc(CN2CCCCC2)c1
Thinking about recorded pIC50 values, which is higher, A or B ? Returns: label corresponding to the selected item.
A
